- measurement_protocol: soluble on expression in E. coli; label from the status in PepcDB or PDB records
quantity: soluble on expression in E. coli

# count of solved cases: 10
{"columns": ["item_sequence", "quantity", "endpoint_result"],
 "data": [
  ["SAVPAILQVITESTGLGFAAVARVTEDSWTACAVLDNLGFGLKPGGELELISTICHEIRASHKPVVIDHVAEDELFCAHHTPRRYNFQSYISIPIFLTDGSFFGTICALDPKPAKLTGTPIEAMMVSFARLLALQIEAEENMQRVQ", "soluble on expression in E. coli", "soluble"],
  ["MPQDPRHPEHQYLDLVKHILENGARRMDRTGTGTLSVFGATMRFSLEDNTFPLLTTRRVFYRGVVEELLFFLRGETDSKVLEKKGVRIWEKNGAKQFLQSVGIDREEGDLGPIYGFQWRHFGARYETSASSYEGKGVDQIASAIAAIRANPASRRIVVSAWNPTDLGSMALPPCHVLFQFNVTDGKLSCAMYQRSGDMGLGVPFNIASYSLLTILVAHLTGLQPGEFVHFLGDAHVYLDHVDSLRQQIQRPPRAFPKLFVSPKGPRTEPEHFQYEDFELVGYDPHPAIKMNMSA", "soluble on expression in E. coli", "soluble"],
  ["MLEILGKASSINVRKVLWTCAELDLPYRREDWGSGFRDTHAAEFLALNPNAMVPVLRDGELVLWESNSIIRYLANRYAGERLYPQQAAPRARVDQWLDWQASDLNRSWSYAFMSLVRQSPAHRDAAQVEASLRGWTGFMEILEGQLLRTGAYVAGETFSLADIAIGLSVNRWYETPFEHPSLPAVRAYYERLGAR", "soluble on expression in E. coli", "not soluble"],
  ["MNITFKFNFMSYKHYFSPKHKPEITQAITITEPAIIFRLNKTYSTNLSQQEIYDITRSDWILGHRREKAEYGFAAFKGVVLQVYRIDRWDFSGKVTDVGRQRWFFEGKVATEMQDYINGNISHYFKKGDRSPTKYLNCLEHHHHHH", "soluble on expression in E. coli", "not soluble"],
  ["MGSDKIHHHHHHVTFFERYSRVLFERYQGKVKYWLTFNEINGAQFMPMLSLGMAVREDENMLQSTYQGLHHQFVASSLATKAAREIDPTMQIGCMLIAAPVYPFSSNPVDVQFALEEERMMNYFCGDVHVRGAYPAFAGRFFSENNIELVVEDGDLELLRDYTVDFFSLSYYMSRTEKAEKDGNEAGGNIMSGVKNPYLKASDWGWEINPDGLRIILNKLYDRYQIPLFIVENGLGAYDEIIASNGATLTQTSVSK", "soluble on expression in E. coli", "not soluble"],
  ["MGSDKIHHHHHHMSYDLPRLTPDKDFKVPSACGVSGIMNTSGKRFSGSVIVESMALMRERGNGLGAGYAAYGIYPELKDLYCFHMLYDSDLDKKNAEEYIKDHYEIIESEPIPTRKNPHIKEVHILWRYFLKPKFIPEDMSEEDFVVSTVMFINEKINGAFVMSSGKNMGVFKGVGFPEDIADFYRIDEYKGYIWTAHNRFPTNTVGWWGGAHPFGILDWTVVHNGEISSYGINRRFLEAYGYKCTLMTDTEVVAYLVDLFMRRFGYSPQLTAKILAAPLWKDIDLMPEEERKLYTALRMNYGGALLNGPFAIIVANNNMMMGLNDRIKLRPLVAATKDDFLYIASEESAIRVVCPEPDEVWAPKAGDPVVGVLKSARKTQVVLEGENG", "soluble on expression in E. coli", "not soluble"],
  ["MGSDKIHHHHHHMGHDLPPLPSRDVHAVRWYVLSLPACHKGPAKGLKKELDRRVRLGEPTFDFFAPSFVEMRRREGHLVETHRPLLYNYVFIRSSVYEIFRLKRDFPLYNFLPSVDGRGSYPFVSDREMENLRWVARSYSDELPVYVPEAGYLRKGDRIRITDGRFKGVEASVVIQPGVGEREVMVCVDNWMWVPLLRVQPGEYEVISLAEEGKHVYTRLDNSRIQNGLHEALGRHWGSCGVTAADRELAAETLRTYGELQLDSAVMRCKLYSLLLPAYTILGDEERQKSLIGTIVSFLSLIRAEQSLALLLLTLYGCTDSSIYYYRAHELIDPWSRESSPKKSKLSLIRRLADYDRWLKHNE", "soluble on expression in E. coli", "not soluble"],
  ["MAHHHHHHMLHNGKKNPTQAVDDGNPRKSKHREVGSHCKGLDKKENINKSGEEHIKKVEGRENCEPHDIKRRGEIDKVLIQCEELQRKELEALKLIYVRDRELVIQNENDEKRDTIIHMQLNDENISDNVINLTFELPKDYPLKSFLLIDINVKNFTPDMNNYLNQEVYKDMPNYIAHENSILSIIYRINELVENIQNSKKTSVDHSYLSSEEREEYVEEGAFDPSEDQLIKDHVPFLYCSGMTYSHHRRVLARRLCYSHHILSLVKRTYIIKWAKDLKIGGYSKIGYPGIIICEGPKEEVDFYINSLNKLRWKHFDCRGMEDIILKEYEDLDDARVLPRTMYELDPKGMSTLSNICTECGLRDLFLTSMKIYHT", "soluble on expression in E. coli", "not soluble"],
  ["MQAVGLITEYNPLHNGHRYHLRQAQQLTNADCVIVVMSGDWLQRGEPAILDKWTRAKLALENGADLVIELPVFFATQPAHLFARGGIELLSALDCTSVVFGAEHPELDFQRLATAIAARQGSFTHYNATFATQFNAALQAATGVTLTAANDMLSFCYYAANQTLAHPMQLLPIKRRQADHATTTIAADSRYASGTAVRQAALAQDWAALKPVVPADTFTALTTQRLQ", "soluble on expression in E. coli", "not soluble"],
  ["MTRPPLPPFTAETAAEKVRLAENGWNNRSADVVTPAYSDDSRWRNRAEFVTGHDDIHAFLTRKWDKELDYRLIKELWAWSGNRIAVRYAYEWHDDSGNWFRSYGNENWEFDEDGRMSARHTSLNDLPITEDERLFHWPLGPRPDGHPGLTDLGLLEHHHHHH", "soluble on expression in E. coli", "not soluble"]
]}

## Input Form field: reported soluble on expression in E. coli of MAHHHHHHMRTSRGFCMSMWDSPAFEHNPLSRYWKRMMKQNGETLTAQSIPRHIHGYIEASCPRTEGLVRWFPYKKEITVDGRYVPTISDAIYSYYFPRELNDDERVKYVAIKTGRSELEVAEEVFLMRKMKLFVAQLLRNKLRSRPLRMPEGVDYSGIERRYTLGISRVAQAMGMSMYGTQSYDPVIVYSPYCDIGDCIDCICTKQLRTATQYLLCEVAVHRGIARSRMTDVTSEPKEPLSHVEPCLFEFIKLRLAILALVAKQEHYVVDHLFDGGHRYGGCLIHLFPSPLDPEIIDHEVNHIELDLDLAQKWMKHYYDHYVAPRRSG
## Output not soluble

## Input Form field: reported soluble on expression in E. coli of GSDITSLYKKAGSEMNGPRCPVQTVGQWLESIGLPQYENHLMANGFDNVQFMGSNVMEDQDLLEIGILNSGHRQRILQAIQLLPKMRPIGHDGYHPTSVAEWL
## Output soluble
